Numbers sourced from paper PMC9321339.

- Tested on: voltage-gated Na+ (NaV) channels / INa in Neuro-2a cells (mainly NaV1.2, 1.3, 1.4 and 1.7)
- Construct: gene Scn2a
- Format: cell-based
- experimental.context: peak (transient) INa(T); step -100 to -10 mV, 30 ms; Ca2+-free Tyrode with 10 mM TEA, 0.5 mM CdCl2; 20-25 °C
property: IC50 (µM)
Numbers only, in µM.

Q: Identify the measured IC50 of NC(=O)N1c2ccccc2C=Cc2ccccc21 [Carbamazepine, 5H-dibenzo[b,f]azepine-5-carboxamide] for voltage-gated Na+ (NaV) channels / INa in Neuro-2a cells (mainly NaV1.2, 1.3, 1.4 and 1.7).
Ans: 56
